// reported Activity for each item listed
# Species on record: Homo sapiens
# ASSAY PROTOCOL: Inhibition of PI4K3 beta (unknown origin) assessed as residual activity at 10 uM by ADP-Glo assay relative to control
Quick note: give the figure in %, leave out the unit.

# example entries with known answers
> print(dat)
                                smiles.data  assay.value
1  COc1ccc(-n2c(C)nc3c(NCCN4CCOCC4)nc(-c4cccc(NC(C)=O)c4)nc32)cc1OC           14
2  COc1ccc(-n2c(C(C)C)nc3c(NCCN4CCOCC4)nc(C)nc32)cc1OC           65
3  COc1ccc(-n2nnc3c(NCCN4CCOCC4)ncnc32)cc1OC           41

Challenge: Could you please provide reported Activity for COc1ccc(-n2c(C)nc3c(NCCN4CCOCC4)nc(-c4ccc(F)cc4)nc32)cc1OC ? Thanks!
Response given: 66

Challenge: Could you please provide reported Activity for COc1ccc(-n2cnc3c(NCCN4CCOCC4)nc(C)nc32)cc1OC ? Thanks!
Response given: 26

Challenge: Could you please provide reported Activity for COc1nc(NCCN2CCOCC2)c2nc(C)n(-c3ccc(OC)c(OC)c3)c2n1 ? Thanks!
Response given: 15

Challenge: Could you please provide reported Activity for COc1ccc(-n2c(C)nc3c(NCCN4CCOCC4)nc(I)nc32)cc1OC ? Thanks!
Response given: 33

Challenge: Could you please provide reported Activity for COc1ccc(-n2c(I)nc3c(NCCN4CCOCC4)nc(C)nc32)cc1OC ? Thanks!
Response given: 38

Challenge: Could you please provide reported Activity for COc1ccc(-n2c(OC)nc3c(NCCN4CCOCC4)nc(C)nc32)cc1OC ? Thanks!
Response given: 86

Challenge: Could you please provide reported Activity for COc1ccc(Cn2c(C)nc3c(NCCN4CCOCC4)nc(C)nc32)cc1OC ? Thanks!
Response given: 126

====

# Species on record: Homo sapiens
# ASSAY PROTOCOL: Inhibition of PI4K3 beta (unknown origin) assessed as residual activity at 10 uM by ADP-Glo assay relative to control
// reported Activity for each item listed
Quick note: give the figure in %, leave out the unit.

# example entries with known answers
> print(dat)
                                smiles.data  measurement.units  assay.value
1  COc1ccc(-n2c(C)nc3c(NCCN4CCOCC4)nc(-c4cccc(Cl)c4)nc32)cc1OC                  %           67
2  COc1ccc(-n2c(-c3ccc(C#N)cc3)nc3c(NCCN4CCOCC4)nc(C)nc32)cc1OC                  %           97
3  COc1ccc(-n2c(C)nc3c(NCCN4CCOCC4)nc(-c4ccsc4)nc32)cc1OC                  %           46

Challenge: Could you please provide reported Activity for COc1ccc(-n2nnc3c(NCCN4CCOCC4)nc(C)nc32)cc1OC ? Thanks!
Response given: 31

Challenge: Could you please provide reported Activity for COc1ccc(-n2c(C)nc3c(NCCN4CCOCC4)nc(-c4cccc(C(=O)N(C)C)c4)nc32)cc1OC ? Thanks!
Response given: 16

====

// reported EC50 for each item listed
# System: Hepatitis C virus
# ASSAY PROTOCOL: Antiviral activity against Hepatitis C virus subtype 1b
# Format: functional, organism-based, Hepacivirus hominis
# SETTINGS: genotype 1b
Quick note: give the figure in µM, leave out the unit.

# example entries with known answers
> print(dat)
                                smiles.data  assay.value
1  COc1ccc(-n2c(C)nc3c(NCCN4CCOCC4)nc(-c4ccc(O)cc4)nc32)cc1OC          1.3
2  COc1ccc(-n2c(I)nc3c(NCCN4CCOCC4)nc(C)nc32)cc1OC           20
3  COc1ccc(-n2c(C)nc3c(NCCN4CCOCC4)nc(-c4cccc(C(=O)N(C)C)c4)nc32)cc1OC          3.8
4  COc1ccc(-n2nnc3c(NCCN4CCOCC4)ncnc32)cc1OC           32
5  COc1ccc(-n2c(C)nc3c(NCCN4CCOCC4)nc(-c4cccc(Cl)c4)nc32)cc1OC            5
6  COc1ccc(-n2cnc3c(NCCN4CCOCC4)nc(C)nc32)cc1OC         11.5

Challenge: Could you please provide reported EC50 for COc1ccc(-n2c(C)nc3c(NCCN4CCOCC4)nc(-c4ccsc4)nc32)cc1OC ? Thanks!
Response given: 23

Challenge: Could you please provide reported EC50 for COc1ccc(Cn2c(C)nc3c(NCCN4CCOCC4)nc(C)nc32)cc1OC ? Thanks!
Response given: 43

Challenge: Could you please provide reported EC50 for COc1ccc(-n2nnc3c(NCCN4CCOCC4)nc(C)nc32)cc1OC ? Thanks!
Response given: 33

Challenge: Could you please provide reported EC50 for COc1ccc(-n2c(C)nc3c(NCCN4CCOCC4)nc(-c4cccnc4)nc32)cc1OC ? Thanks!
Response given: 15

Challenge: Could you please provide reported EC50 for COc1ccc(-n2c(C)nc3c(NCCN4CCOCC4)nc(C#Cc4ccccc4)nc32)cc1OC ? Thanks!
Response given: 6

Challenge: Could you please provide reported EC50 for COc1ccc(-n2c(C)nc3c(NCCN4CCOCC4)nc(-c4ccc(F)cc4)nc32)cc1OC ? Thanks!
Response given: 4.4

Challenge: Could you please provide reported EC50 for COc1ccc(-n2ccc3c(NCCN4CCOCC4)ncnc32)cc1OC ? Thanks!
Response given: 22

Challenge: Could you please provide reported EC50 for COc1ccc(-n2c(C)nc3c(NCCN4CCOCC4)nc(C#N)nc32)cc1OC ? Thanks!
Response given: 14

====

# Species on record: Homo sapiens
# ASSAY PROTOCOL: Inhibition of PI4K3 beta (unknown origin) assessed as residual activity at 10 uM by ADP-Glo assay relative to control
// reported Activity for each item listed
Quick note: give the figure in %, leave out the unit.

> print(dat)
                                   compound  value.kind  assay.value
1  COc1ccc(-n2c(Br)nc3c(NCCN4CCOCC4)nc(C)nc32)cc1OC    Activity           17
2  COc1ccc(-n2c(C3CC=CCC3)nc3c(NCCN4CCOCC4)nc(C)nc32)cc1OC (configuration not stated)    Activity           75
3  COc1ccc(-n2c(-c3ccc(CO)cc3)nc3c(NCCN4CCOCC4)nc(C)nc32)cc1OC    Activity          103
4  COc1ccc(-n2c(C)nc3c(NCCN4CCOCC4)nc(N)nc32)cc1OC    Activity           25
5  COc1ccc(-n2c(C)nc3c(NCCN4CCOCC4)nc(-c4ccc(C#N)cc4)nc32)cc1OC    Activity           97
6  COc1ccc(-n2c(C)nc3c(NCCN4CCOCC4)ncnc32)cc1OC    Activity           13
7  COc1ccc(-n2c(-c3ccsc3)nc3c(NCCN4CCOCC4)nc(C)nc32)cc1OC    Activity           94
8  COc1ccc(-n2c(-c3ccc(F)cc3)nc3c(NCCN4CCOCC4)nc(C)nc32)cc1OC    Activity           78

Challenge: Could you please provide reported Activity for COc1ccc(-n2c(-c3ccc(C=O)cc3)nc3c(NCCN4CCOCC4)nc(C)nc32)cc1OC ? Thanks!
Response given: 138

Challenge: Could you please provide reported Activity for COc1ccc(-n2c(C#Cc3ccccc3)nc3c(NCCN4CCOCC4)nc(C)nc32)cc1OC ? Thanks!
Response given: 96

Challenge: Could you please provide reported Activity for COc1ccc(-n2c(C)nc3c(NCCN4CCOCC4)nc(C#N)nc32)cc1OC ? Thanks!
Response given: 24

Challenge: Could you please provide reported Activity for COc1ccc(-n2c(C(F)(F)F)nc3c(NCCN4CCOCC4)nc(C)nc32)cc1OC ? Thanks!
Response given: 99

Challenge: Could you please provide reported Activity for C#Cc1nc(NCCN2CCOCC2)c2nc(C)n(-c3ccc(OC)c(OC)c3)c2n1 ? Thanks!
Response given: 18

Challenge: Could you please provide reported Activity for COc1ccc(-n2c(C)nc3c(NCCN4CCOCC4)nc(C#Cc4ccccc4)nc32)cc1OC ? Thanks!
Response given: 58

Challenge: Could you please provide reported Activity for COc1ccc(-n2ccc3c(NCCN4CCOCC4)ncnc32)cc1OC ? Thanks!
Response given: 74

====

# Species: Homo sapiens
# ASSAY PROTOCOL: Inhibition of PI4K3 beta (unknown origin) assessed as residual activity at 10 uM by ADP-Glo assay relative to control
Outcome: criterion met for Activity of at least 40%; criterion not met for anything lower.

The following molecules have reported results that may help.
> print(dat)
                                smiles.data              group
1  COc1ccc(-n2c(C)nc3c(NCCN4CCOCC4)nc(C)nc32)cc1OC  criterion not met
2  COc1ccc(-n2c(C3CCCCC3)nc3c(NCCN4CCOCC4)nc(C)nc32)cc1OC      criterion met
3  COc1ccc(-n2c(-c3ccc(O)cc3)nc3c(NCCN4CCOCC4)nc(C)nc32)cc1OC      criterion met
4  COc1ccc(-n2c(C)nc3c(NCCN4CCOCC4)nc(-c4cccnc4)nc32)cc1OC  criterion not met
5  COc1ccc(-n2c(-c3ccc(OCc4ccccc4)cc3)nc3c(NCCN4CCOCC4)nc(C)nc32)cc1OC      criterion met

Challenge: API: above_or_equal(metric=Activity, cutoff=40%) for item COc1ccc(-n2c(CO)nc3c(NCCN4CCOCC4)nc(C)nc32)cc1OC
Response given: criterion met

Challenge: API: above_or_equal(metric=Activity, cutoff=40%) for item COc1ccc(-n2c(C)nc3c(NCCN4CCOCC4)nc(-c4ccc(O)cc4)nc32)cc1OC
Response given: criterion not met
